- Tested on: Echinochloa crus-galli (ECHCG)
- Assay Method Text: Pre-emergence herbicide glasshouse test
- Type: in vivo
- Reported Conditions: 250 g/ha, evaluated after 13 days
Item-by-item account of percentage damage caused to the plant, ECHCG (five-point scale)

Use these answered entries as a reference point.
{"columns": ["Smi", "Reported Measurement"],
 "data": [
  ["Cn1cc(Cn2cc(C(F)(F)F)nc2-c2ccc(C(F)(F)F)cc2)c(C(F)(F)F)n1", "1 (1=0-20%)"],
  ["Cn1nnc(Cn2cc(C(F)(F)F)nc2-c2ccc(Cl)nc2)n1", "5 (5=81-100%)"],
  ["Cc1nc(Cn2cc(C(F)(F)F)nc2-c2ccc(Cl)nc2)no1", "5 (5=81-100%)"],
  ["Cn1cnc(Cn2cc(C(F)(F)F)nc2-c2ccc(S(C)(=O)=O)cc2)n1", "4 (4=61-80%)"],
  ["Cn1cnc(Cn2cc(C#N)nc2-c2ccc(F)c(F)c2)n1", "5 (5=81-100%)"]
]}

Record Cn1cnc(Cn2cc(C(F)(F)F)nc2-c2ccc(Cl)nc2)n1 . Reported percentage damage caused to the plant, ECHCG (five-point scale): 5 (5=81-100%)

---

- System: Echinochloa crus-galli (ECHCG)
- Assay Method Text: Pre-emergence herbicide glasshouse test
- Format: in vivo
- Reported Conditions: 250 g/ha, evaluated after 13 days
Quantity: percentage damage caused to the plant, ECHCG (five-point scale)

Use these answered entries as a reference point.
{"columns": ["Smi", "Reported Measurement"],
 "data": [
  ["CN(C)S(=O)(=O)c1cc(Cn2cc(C(F)(F)F)nc2-c2ccc(Cl)nc2)co1", "1 (1=0-20%)"],
  ["Cc1cnc(Cn2cc(C(F)(F)F)nc2-c2ccc(Cl)nc2)s1", "5 (5=81-100%)"],
  ["CC(C)c1nc(Cn2cc(C(F)(F)F)nc2-c2ccc(Cl)nc2)no1", "1 (1=0-20%)"]
]}

Record Cc1nc(Cn2cc(C(F)(F)F)nc2-c2ccc(S(C)(=O)=O)cc2)no1 . Reported percentage damage caused to the plant, ECHCG (five-point scale): 1 (1=0-20%)

Record FC(F)(F)c1cn(Cc2cc(C3CC3)no2)c(-c2ccc(Cl)nc2)n1 . Reported percentage damage caused to the plant, ECHCG (five-point scale): 3 (3=41-60%)

Record FC(F)c1cc(Cn2cc(C(F)(F)F)nc2-c2ccc(Cl)nc2)no1 . Reported percentage damage caused to the plant, ECHCG (five-point scale): 5 (5=81-100%)

Record Cc1cc(Cn2cc(C(F)(F)F)nc2-c2cnc(Cl)c(F)c2)ns1 . Reported percentage damage caused to the plant, ECHCG (five-point scale): 3 (3=41-60%)

Record CCc1noc(Cn2cc(C(F)(F)F)nc2-c2ccc(Cl)nc2)n1 . Reported percentage damage caused to the plant, ECHCG (five-point scale): 1 (1=0-20%)

---

Item-by-item account of percentage damage caused to the plant, IPOHE (five-point scale)
- System: Ipomoea hederacea (IPOHE)
- Assay Method Text: Pre-emergence herbicide glasshouse test
- Format: in vivo
- Reported Conditions: 250 g/ha, evaluated after 13 days

Record for Cn1ccc(Cn2cc(C(F)(F)F)nc2-c2ccc(Cl)nc2)n1 under target or system Ipomoea hederacea (IPOHE): percentage damage caused to the plant, IPOHE (five-point scale) reported as 5 (5=81-100%)

---

Item-by-item account of percentage damage caused to the plant, ECHCG (five-point scale)
- System: Echinochloa crus-galli (ECHCG)
- Assay Method Text: Pre-emergence herbicide glasshouse test
- Type: in vivo
- Reported Conditions: 250 g/ha, evaluated after 13 days

{"columns": ["Smi", "Study Target", "Reported Measurement"],
 "data": [
  ["Cn1cc(Cn2cc(C(F)(F)F)nc2-c2ccc(Cl)nc2)nn1", "Echinochloa crus-galli (ECHCG)", "4 (4=61-80%)"],
  ["Cc1noc(Cn2cc(C(F)(F)F)nc2-c2ccc(Cl)nc2)n1", "Echinochloa crus-galli (ECHCG)", "1 (1=0-20%)"],
  ["Cc1nc(Cn2cc(C(F)(F)F)nc2-c2cnc(F)c(Cl)c2)no1", "Echinochloa crus-galli (ECHCG)", "5 (5=81-100%)"],
  ["Cc1cc(Cn2cc(C(F)(F)F)nc2-c2cnc(F)c(Cl)c2)no1", "Echinochloa crus-galli (ECHCG)", "5 (5=81-100%)"]
]}

Consider the additional molecule presented here.
Record for CON=Cc1cn(Cc2ncn(C)n2)c(-c2cnc(Cl)c(F)c2)n1 under target or system Echinochloa crus-galli (ECHCG): percentage damage caused to the plant, ECHCG (five-point scale) reported as 1 (1=0-20%)

---

- System: Ipomoea hederacea (IPOHE)
- Assay Method Text: Pre-emergence herbicide glasshouse test
- Type: in vivo
- Reported Conditions: 250 g/ha, evaluated after 13 days
Item-by-item account of percentage damage caused to the plant, IPOHE (five-point scale)

Use these answered entries as a reference point.
{"columns": ["Compound", "Reported Measurement"],
 "data": [
  ["Cc1noc(Cn2cc(C(F)(F)F)nc2-c2ccc(Cl)nc2)n1 [Compound 1.101]", "5 (5=81-100%)"],
  ["Cn1cnc(Cn2cc(C(F)(F)F)nc2-c2cnc(F)c(Cl)c2)n1 [Compound 1.165]", "5 (5=81-100%)"],
  ["Cc1cc(Cn2cc(C(F)(F)F)nc2-c2cnc(Cl)c(F)c2)ns1 [Compound 1.027]", "4 (4=61-80%)"],
  ["Cc1noc(Cn2cc(C(F)(F)F)nc2-c2cnc(F)c(Cl)c2)n1 [Compound 1.151]", "5 (5=81-100%)"]
]}

Consider the additional compound presented here.
Record Cc1coc(Cn2cc(C(F)(F)F)nc2-c2ccc(Cl)nc2)n1 [Compound 1.096] . Reported percentage damage caused to the plant, IPOHE (five-point scale): 5 (5=81-100%)

---

- System: Ipomoea hederacea (IPOHE)
- Assay Method Text: Pre-emergence herbicide glasshouse test
- Type: in vivo
- Reported Conditions: 250 g/ha, evaluated after 13 days
- Procedure: Seeds of a variety of test species are sown in standard soil in pots Amaranthus palmeri (AMAPA), Amaranthus retoflexus (AMARE), Echinochloa crus-galli (ECHCG), Ipomoea hederacea (IPOHE)). […] After 13 days for pre and post-emergence, the test is evaluated for the percentage damage caused to the plant. […]
Quantity: percentage damage caused to the plant, IPOHE (five-point scale)

{"columns": ["Smi", "Study Target", "Reported Measurement"],
 "data": [
  ["FC(F)n1ccc(Cn2cc(C(F)(F)F)nc2-c2ccc(Cl)nc2)n1", "Ipomoea hederacea (IPOHE)", "5 (5=81-100%)"],
  ["Cc1nnc(Cn2cc(C(F)F)nc2-c2cnc(Cl)c(F)c2)s1", "Ipomoea hederacea (IPOHE)", "1 (1=0-20%)"],
  ["CON=Cc1cn(Cc2ncn(C)n2)c(-c2cnc(Cl)c(F)c2)n1", "Ipomoea hederacea (IPOHE)", "5 (5=81-100%)"],
  ["Cc1cc(Cn2cc(C(F)(F)F)nc2-c2ccc(S(C)(=O)=O)cc2)no1", "Ipomoea hederacea (IPOHE)", "5 (5=81-100%)"],
  ["CCc1nc(Cn2cc(C(F)(F)F)nc2-c2ccc(Cl)nc2)no1", "Ipomoea hederacea (IPOHE)", "5 (5=81-100%)"],
  ["Cc1cc(Cn2cc(C(F)(F)F)nc2-c2ccc(Cl)nc2)no1", "Ipomoea hederacea (IPOHE)", "5 (5=81-100%)"]
]}

Record for Cc1nnc(Cn2cc(C(F)(F)F)nc2-c2cnc(Cl)c(F)c2)o1 under target or system Ipomoea hederacea (IPOHE): percentage damage caused to the plant, IPOHE (five-point scale) reported as 4 (4=61-80%)

Record for FC(F)(F)c1cn(Cc2sc(Cl)nc2Cl)c(-c2ccc(Cl)nc2)n1 under target or system Ipomoea hederacea (IPOHE): percentage damage caused to the plant, IPOHE (five-point scale) reported as 1 (1=0-20%)

Record for CS(=O)(=O)c1ccc(-c2nc(C(F)(F)F)cn2Cc2ccc(Cl)s2)cc1 under target or system Ipomoea hederacea (IPOHE): percentage damage caused to the plant, IPOHE (five-point scale) reported as 1 (1=0-20%)

Record for FC(F)(F)c1cn(Cc2ccns2)c(-c2ccc(Cl)nc2)n1 under target or system Ipomoea hederacea (IPOHE): percentage damage caused to the plant, IPOHE (five-point scale) reported as 1 (1=0-20%)

---

- Tested on: Ipomoea hederacea (IPOHE)
- Assay Method Text: Pre-emergence herbicide glasshouse test
- Type: in vivo
- Reported Conditions: 250 g/ha, evaluated after 13 days
Quantity: percentage damage caused to the plant, IPOHE (five-point scale)

{"columns": ["Molecule", "Reported Measurement"],
 "data": [
  ["Cc1nnc(Cn2cc(C(F)(F)F)nc2-c2ccc(Cl)nc2)s1 [Compound 1.065]", "5 (5=81-100%)"],
  ["Cc1nc(Cn2cc(C(F)(F)F)nc2-c2ccc(F)c(F)c2)no1 [Compound 1.168]", "5 (5=81-100%)"],
  ["CC(C)c1nc(Cn2cc(C(F)(F)F)nc2-c2ccc(Cl)nc2)no1 [Compound 1.126]", "1 (1=0-20%)"],
  ["Cc1nonc1Cn1cc(C(F)(F)F)nc1-c1ccc(C(F)(F)F)cc1 [Compound 1.006]", "1 (1=0-20%)"],
  ["Cc1nnc(Cn2cc(C(F)(F)F)nc2-c2ccc(F)c(F)c2)s1 [Compound 1.021]", "5 (5=81-100%)"],
  ["Cc1cc(Cn2cc(C(F)(F)F)nc2-c2ccc(F)c(F)c2)ns1 [Compound 1.162]", "3 (3=41-60%)"],
  ["Cc1nc(Cn2cc(C(F)(F)F)nc2-c2cnc(F)c(Cl)c2)no1 [Compound 1.160]", "5 (5=81-100%)"],
  ["Cn1cnc(Cn2cc(C(F)(F)F)nc2-c2ccc(Cl)nc2)n1 [Compound 1.087]", "5 (5=81-100%)"],
  ["FC(F)(F)c1cn(Cc2nc(C3CC3)no2)c(-c2ccc(Cl)nc2)n1 [Compound 1.138]", "2 (2=21-40%)"],
  ["Cc1noc(Cn2cc(C(F)(F)F)nc2-c2ccc(S(C)(=O)=O)cc2)n1 [Compound 1.176]", "1 (1=0-20%)"]
]}

Consider the additional molecule presented here.
Record for CCc1cc(Cn2cc(C(F)(F)F)nc2-c2ccc(Cl)nc2)no1 [Compound 1.046] under target or system Ipomoea hederacea (IPOHE): percentage damage caused to the plant, IPOHE (five-point scale) reported as 5 (5=81-100%)
